Below, each of the compounds is paired with its reported collision cross section (N2) value.
# experimental context: [M+NH4]+; instrument: DT; single field, calibrated with Agilent tune mix (Agilent)
readout type: collision cross section (N2) (Å²)

compound="CCCCC/C=C\\C/C=C\\CCCCCCCCCCCC(=O)O[C@H](COC(=O)CCCCCCC/C=C\\CCCCCC)COP(=O)(O)O[C@H]1C(O)C(O)C(O)[C@@H](O)C1O (stereo partly specified) [PI(38:3)]" unit_abbreviation=Å² numeric_value=306
compound="CCCCC/C=C\\CCCCCCCC(=O)OC[C@H](COC(=O)CCCCCCC/C=C\\CCCCCCCC)OC(=O)CCCCCCC/C=C\\CCCCCCCC [TG(51:3)]" unit_abbreviation=Å² numeric_value=314.6
compound="CCCCC/C=C\\C/C=C\\C/C=C\\CCCCC(=O)O[C@H](COC(=O)CCCCCCCCCCC)COC(=O)CCCCCCCCCCC/C=C\\C/C=C\\CCCCC [TG(52:5)]" unit_abbreviation=Å² numeric_value=314.7
compound="CCCCCCC/C=C\\CCCCCCCC(=O)O[C@H](COC(=O)CCCCCCCCCCCCCCCC)COC(=O)CCCCCCCCCCCCCCCCC [TG(52:1)]" unit_abbreviation=Å² numeric_value=323.6
compound="CCCCC/C=C\\C/C=C\\CCCCCCCCCCCC(=O)OC[C@@H](COC(=O)CCCCCCCCCCC)OC(=O)CCCCCCCCCCC/C=C\\C/C=C\\CCCCC [TG(56:4)]" unit_abbreviation=Å² numeric_value=330.8
compound="CCCCC/C=C\\C/C=C\\C/C=C\\CCCCCCCCC(=O)OC[C@@H](COC(=O)CCCCCCCCCCCCC)OC(=O)CCCCCCCCCCCCC [TG(50:3)]" unit_abbreviation=Å² numeric_value=313
compound="CCCCCC/C=C\\CCCCCCCC(=O)OC[C@H](COP(=O)(O)OC[C@@H](O)CO)OC(=O)CCCCCCCCCCCCCCCCCCC [PG(36:1)]" unit_abbreviation=Å² numeric_value=292.5
compound="CCCC/C=C\\C/C=C\\CCCCCCCC(=O)O[C@@H](COC(=O)CCCCCCC/C=C\\C/C=C\\CCCCC)COC(=O)CCCCCCCCCCCCCCC [TG(51:4)]" unit_abbreviation=Å² numeric_value=312.1
compound="CC/C=C\\C/C=C\\C/C=C\\C/C=C\\C/C=C\\C/C=C\\CCC(=O)O[C@H](COC(=O)CCCCCCCCCCCCCCC)COP(=O)(O)OC[C@@H](O)CO [PG(38:6)]" unit_abbreviation=Å² numeric_value=290.2
compound="CCCCC/C=C\\C/C=C\\CCCCCCCCCCCC(=O)O[C@H](COC(=O)CCCCCCCCCCC)COP(=O)(O)O[C@H]1C(O)C(O)C(O)[C@@H](O)C1O (stereo partly specified) [PI(34:2)]" unit_abbreviation=Å² numeric_value=292.9
compound="CCCCC/C=C\\C/C=C\\C/C=C\\C/C=C\\CCCCCC(=O)OC[C@H](COP(=O)(O)OC[C@@H](O)CO)OC(=O)CCCCCCC/C=C\\CCCCCCCC [PG(40:5)]" unit_abbreviation=Å² numeric_value=298.9
